All values here come from patent US8318723B2.

The following are reported IC50 results, target or system PIM-2 (Homo sapiens).
endpointName: IC50 (µM)

Field: example entries. Status: answers known.
- structureSmiles: "CN1CCCN(c2cncc(-c3cccc(/C=C/C(N)=O)c3)n2)CC1"
  endpointName: "IC50"
  unitSpec: "µM"
  recordedResult: 1.2
- structureSmiles: "CN(C)CCNc1cncc(-c2cccc(/C=C/C(=O)O)c2)n1"
  endpointName: "IC50"
  unitSpec: "µM"
  recordedResult: 0.099
- structureSmiles: "CC(=O)NCCNc1cncc(-c2cccc(/C=C/C(=O)O)c2)n1"
  endpointName: "IC50"
  unitSpec: "µM"
  recordedResult: 1.02
- structureSmiles: "CN1CCN(c2cncc(-c3cccc(/C=C/C(=O)O)c3)n2)CC1"
  endpointName: "IC50"
  unitSpec: "µM"
  recordedResult: 0.15
- structureSmiles: "CNCCCN(C)c1cncc(-c2cccc(/C=C/C(=O)O)c2)n1"
  endpointName: "IC50"
  unitSpec: "µM"
  recordedResult: 0.11
- structureSmiles: "COC(=O)/C=C/c1cccc(-c2cncc(N3CCCN(C)CC3)n2)c1"
  endpointName: "IC50"
  unitSpec: "µM"
  recordedResult: 1.4

A: O=C(O)/C=C/c1cccc(-c2cncc(N3CCC(CO)CC3)n2)c1
B: COCCCNc1cncc(-c2cccc(/C=C/C(=O)O)c2)n1
C: O=C(O)/C=C/c1cccc(-c2cncc(NCCCO)n2)c1
Exam item: list the entries in increasing order of IC50. Give the labels in the order requested. C, B, A
(C: 0.31 µM, B: 0.48 µM, A: 2.1 µM)
